- test target: phosphorylated IRE1α (p-IRE1α) (Homo sapiens)
- Construct: Human IRE1α kinase and RNase domain (residues 547–977) was subcloned into pLIB plasmid; His tag (with TEV cleavage site) (N, cleaved yes); made in house; host or cells: Sf9 insect cells, baculovirus (Bac-to-Bac)
- Sequence (O75460 547-977): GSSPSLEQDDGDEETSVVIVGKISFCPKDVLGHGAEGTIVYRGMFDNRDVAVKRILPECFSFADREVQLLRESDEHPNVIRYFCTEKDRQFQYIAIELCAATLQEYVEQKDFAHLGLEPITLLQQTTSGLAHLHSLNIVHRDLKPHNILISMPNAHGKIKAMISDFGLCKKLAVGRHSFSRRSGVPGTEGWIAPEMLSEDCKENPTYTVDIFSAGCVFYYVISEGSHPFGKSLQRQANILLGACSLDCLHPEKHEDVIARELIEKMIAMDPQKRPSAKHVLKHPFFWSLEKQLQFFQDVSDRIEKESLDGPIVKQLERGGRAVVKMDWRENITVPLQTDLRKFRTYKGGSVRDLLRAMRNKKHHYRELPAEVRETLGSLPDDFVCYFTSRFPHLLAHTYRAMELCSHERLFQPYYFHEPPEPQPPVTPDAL
- protocol notes: FRET-based IRE1α RNase activity assay, phosphorylated IRE1α
- Type: biochemical
- cond: FRET assay, RNase activity; mean (± SEM); read-out: p-IRE1α IC50
Measured IC50 by item

mol: COc1ccc2c(c1)c(CCC(=O)O)c(C)n2C(=O)c1ccc2ccccc2c1
relation qualifier: >
IC50, µM: 20
//
mol: Cc1c(CCC(=O)O)c2cc(-c3cn[nH]c3)ccc2n1C(=O)c1ccccc1
relation qualifier: =
IC50, µM: 2.34
//
mol: Cc1c(CCC(=O)O)c2cc(OC(F)(F)F)ccc2n1C(=O)c1ccccc1
relation qualifier: =
IC50, µM: 0.94
//
mol: Cc1c(CCC(=O)O)c2cc(-c3ccncc3)ccc2n1C(=O)c1ccccc1
relation qualifier: =
IC50, µM: 11.6
//
mol: Cc1noc(C)c1-c1ccc2c(c1)c(CCC(=O)O)c(C)n2C(=O)c1ccccc1
relation qualifier: =
IC50, µM: 4.68
//
mol: Cc1c(CCC(=O)O)c2cc(-c3cccs3)ccc2n1C(=O)c1ccccc1
relation qualifier: =
IC50, µM: 7.56
//
mol: COc1ccc2c(c1)c(CCC(=O)O)c(C)n2C(=O)c1ccc(Br)cc1
relation qualifier: =
IC50, µM: 1.96
//
mol: COc1ccc2c(c1)c(CCC(=O)O)c(C)n2C(=O)c1ccncc1
relation qualifier: =
IC50, µM: 0.34
//
mol: Cc1c(CCC(=O)O)c2cc(-c3ccc(O)cc3)ccc2n1C(=O)c1ccccc1
relation qualifier: >
IC50, µM: 20

---

- test target: dephosphorylated IRE1α (Homo sapiens, UniProt O75460)
- Construct: Human IRE1α kinase and RNase domain (residues 547–977) was subcloned into pLIB plasmid; His tag (with TEV cleavage site) (N, cleaved yes); made in house; host or cells: Sf9 insect cells, baculovirus (Bac-to-Bac)
- Sequence (O75460 547-977): as above
- protocol notes: Isothermal titration calorimetry (ITC), incl. competitive ITC
- Format: binding
- cond: IA107 to IRE1α with 5 μM G1749; read-out: KD (competitive ITC)
pKd: −log10 of the molar value.

mol: Cc1c(CCC(=O)O)c2cc(Br)ccc2n1C(=O)c1ccccc1
test target: dephosphorylated IRE1α (Homo sapiens, UniProt O75460)
pKd: 5.65

---

- test target: dephosphorylated IRE1α (Homo sapiens)
- Construct: Human IRE1α kinase and RNase domain (residues 547–977) was subcloned into pLIB plasmid; His tag (with TEV cleavage site) (N, cleaved yes); made in house; host or cells: Sf9 insect cells, baculovirus (Bac-to-Bac)
- protocol notes: Isothermal titration calorimetry (ITC), incl. competitive ITC
- Format: binding
- cond: titrating 200 μM compound into 10 μM IRE1α; no competitor (DMSO); read-out: KD (ITC)

compound: Cc1c(CCC(=O)O)c2cc(Br)ccc2n1C(=O)c1ccccc1 [IA107]
test target: dephosphorylated IRE1α (Homo sapiens)
Kd / nM: 940
--
compound: Cc1ccc2c(c1)c(CCC(=O)O)c(C)n2C(=O)c1ccccc1 [IA147]
test target: dephosphorylated IRE1α (Homo sapiens)
Kd / nM: 2990
--
compound: Cc1c(CCC(=O)O)c2cc(Cl)ccc2n1C(=O)c1ccccc1 [IA141]
test target: dephosphorylated IRE1α (Homo sapiens)
Kd / nM: 1820
--
compound: COc1ccc2c(c1)c(CCC(=O)O)c(C)n2C(=O)c1ccccc1 [IA64]
test target: dephosphorylated IRE1α (Homo sapiens)
Kd / nM: 2960
